Biological target: human mu opioid receptor (Homo sapiens)
Sequence (P35372 whole entry): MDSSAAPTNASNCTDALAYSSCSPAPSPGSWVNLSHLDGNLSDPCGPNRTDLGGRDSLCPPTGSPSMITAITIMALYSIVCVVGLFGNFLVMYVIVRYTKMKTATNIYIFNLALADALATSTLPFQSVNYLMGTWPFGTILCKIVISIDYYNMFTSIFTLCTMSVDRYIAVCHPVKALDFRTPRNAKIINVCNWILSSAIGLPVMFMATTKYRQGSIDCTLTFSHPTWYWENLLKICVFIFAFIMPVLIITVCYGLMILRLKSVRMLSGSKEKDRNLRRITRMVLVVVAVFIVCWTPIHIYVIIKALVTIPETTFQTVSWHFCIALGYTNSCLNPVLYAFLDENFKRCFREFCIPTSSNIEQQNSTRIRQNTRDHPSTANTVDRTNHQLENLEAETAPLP
Recorded log10 of Ki by entry
Values reflect log10 of reported Ki (nM).

| molecule | value_measured |
| --- | --- |
| C[C@@H]1CN([C@@H](c2cccc(O)c2)c2cccc(C(=O)N3CCN(CCCC(=O)O)CC3)c2)[C@@H](C)CN1CC1CC1 | 2.29 |
| C[C@@H]1CN([C@@H](c2cccc(O)c2)c2cccc(C(=O)N3CCN(CCCC(=O)O)CC3)c2)[C@@H](C)CN1Cc1cccc(F)c1 | 1.14 |
| CCOC(=O)CCCN1CCCN(C(=O)c2cccc(C(c3cccc(O)c3)N3C[C@@H](C)N(CC4CC4)C[C@@H]3C)c2)CC1 (stereo partly drawn) | 0.59 |
| C[C@@H]1CN([C@@H](c2cccc(O)c2)c2cccc(C(=O)N3CCN(CC(=O)O)CC3)c2)[C@@H](C)CN1Cc1ccccc1 | 0.13 |
| C=CCN1C[C@H](C)N([C@@H](c2cccc(O)c2)c2cccc(C(=O)N3CCN(CCCCCC(=O)O)CC3)c2)C[C@H]1C | 1.81 |

// switching to the query molecule
Kindly note: human mu opioid receptor (Homo sapiens), `C[C@@H]1CN([C@@H](c2cccc(O)c2)c2cccc(C(=O)N3CCN(CC(=O)O)CC3)c2)[C@@H](C)CN1Cc1cccc(F)c1` , log10 of Ki value reported: 1.03

Provenance of the data: patent US7683168B2
